- assay.comment: Mammalian cytotoxicity, HeLa cells (neutral red)
- Format: cell-based, Human
- applied.conditions: human, hela cells
measured.quantity: cytotoxicity at 1 h, 60 µM

compound: CC1CCC2(OC1)OC1CC3C4CCC5CC(OC6OC(CO)C(OC7OC(CO)C(O)C(OC8OC(CO)C(O)C(OC9OC(CO)C(O)C(O)C9O)C8O)C7OC7OC(CO)C(O)C(O)C7O)C(O)C6O)C(O)CC5(C)C4CCC3(C)C1C2C (stereo not shown) [CAY-1]
measured.value: ~32%

The reported numbers originate from patent US6310091A.
